Assay: Aqueous solubility of the compound in PBS at pH 7 after 24 hrs by HPLC-UV analysis
Format: physicochemical
readout_type: solubility at 24 h (µg/mL)
Field: numeric (µg/mL). Do not append units.

CC(=O)O.CCN1CCN(CCC(=O)Nc2ccc(S(=O)(=O)N(CC(N)=O)c3ccc(N(CC(N)=O)S(=O)(=O)c4ccc(OC)cc4)c4ccccc34)cc2)CC1	120
CCN1CCN(CCC(=O)Nc2ccc(S(=O)(=O)N(CC(N)=O)c3ccc(N(CC(N)=O)S(=O)(=O)c4ccc(OC)cc4)c4ccccc34)cc2)CC1	91.1

Query: solubility at 24 h; subject: CCN1CCN(CCC(=O)Nc2ccc(S(=O)(=O)N(CC(N)=O)c3ccc(N(CC(N)=O)S(=O)(=O)c4ccc(OC)cc4)c4ccccc34)cc2)CC1.O=C(O)CCC(=O)O
130

====

Test: Aqueous solubility of the compound in PBS at pH 2 after 24 hrs by HPLC-UV analysis
Assay type: physicochemical
readout_type: solubility at 24 h (µg/mL)
Could you give me the number in µg/mL? Just the number is fine.

CCN1CCN(CCC(=O)Nc2ccc(S(=O)(=O)N(CC(N)=O)c3ccc(N(CC(N)=O)S(=O)(=O)c4ccc(OC)cc4)c4ccccc34)cc2)CC1.O=C(O)C(F)(F)F	1260
CCN1CCN(CCC(=O)Nc2ccc(S(=O)(=O)N(CC(N)=O)c3ccc(N(CC(N)=O)S(=O)(=O)c4ccc(OC)cc4)c4ccccc34)cc2)CC1.O=C(O)/C=C\C(=O)O	1050
CCN1CCN(CCC(=O)Nc2ccc(S(=O)(=O)N(CC(N)=O)c3ccc(N(CC(N)=O)S(=O)(=O)c4ccc(OC)cc4)c4ccccc34)cc2)CC1.O=C(O)CCC(=O)O	1080

What value of solubility at 24 h has been recorded for this entry: Br.Br.COc1ccc(S(=O)(=O)N(CC(N)=O)c2ccc(N(CC(N)=O)S(=O)(=O)c3ccc(N)cc3)c3ccccc23)cc1
532

====

Test system: Peritoneal macrophage
Assay: Cytotoxicity against mouse peritoneal macrophages assessed as reduction in cell viability measured after 24 hrs by Cell Titer-Blue assay
Type: functional
readout_type: CC50

Record lookup: for Peritoneal macrophage, what CC50 belongs to COc1ccc(S(=O)(=O)N(CC(N)=O)c2ccc(N(CC(N)=O)S(=O)(=O)c3ccc(NC(=O)CCN4CCSCC4)cc3)c3ccccc23)cc1 ?
> 50 µM

Identify the measured CC50 of CCN1CCN(CC(=O)Nc2ccc(S(=O)(=O)N(CC(N)=O)c3ccc(N(CC(N)=O)S(=O)(=O)c4ccc(OC)cc4)c4ccccc34)cc2)CC1 for Peritoneal macrophage.
> 100 µM

Form: Entry = CCN1CCN(CCCC(=O)Nc2ccc(S(=O)(=O)N(CC(N)=O)c3ccc(N(CC(N)=O)S(=O)(=O)c4ccc(OC)cc4)c4ccccc34)cc2)CC1 | System = Peritoneal macrophage | CC50 = ____
> 100 µM

====

System: Peritoneal macrophage
Experiment: Cytotoxicity against mouse peritoneal macrophages assessed as reduction in cell viability measured after 24 hrs by Cell Titer-Blue assay
Assay type: functional
List of CC50 values.

Some solved entries appear below for comparison.
COc1ccc(S(=O)(=O)N(CC(N)=O)c2ccc(N(CC(N)=O)S(=O)(=O)c3ccc(NC(=O)CCN4CCN(C(C)C)CC4)cc3)c3ccccc23)cc1	> 100 µM
COc1ccc(S(=O)(=O)N(CC(N)=O)c2ccc(N(CC(N)=O)S(=O)(=O)c3ccc(NC(=O)CCCN4CCSCC4)cc3)c3ccccc23)cc1	> 100 µM

// next item, CC50 requested
Find the recorded CC50 belonging to COc1ccc(S(=O)(=O)N(CC(N)=O)c2ccc(N(CC(N)=O)S(=O)(=O)c3ccc(NC(=O)CN4CCC(C)CC4)cc3)c3ccccc23)cc1 and report it.
> 50 µM
